// provenance: patent US20250215081A1

target.under.test: human Fc gamma receptor 1A (human)
protocol.summary: SPR (Biacore T200), antibody amine-coupled on CM5 (~950 RU), FcγR1A as analyte
Please respond with reported Maximum response at 100 nM hFcgammaRIA (RU) for every item in the list.
# unit: RU | format: bare number

Field: Maximum response at 100 nM hFcgammaRIA (RU) (human Fc gamma receptor 1A (human)). Entry: Anti-CD3 LALAPG-IgG1 (L234A/L235A/P329G) (antibody)
18

Now the substance Anti-CD3 DANAPA-IgG1 (D265A/N297A/P329A) (antibody)
11

Now the substance Anti-CD3 LALAGA-IgG1 (L234A/L235A/G237A) (antibody)
15

Now the substance Anti-CD3 LALASKPA-IgG1 (L234A/L235A/S267K/P329A) (antibody)
9

Now the substance Anti-CD3 DAPASK-IgG1 (D265A/P329A/S267K) (antibody)
13

Now the substance Anti-CD3 GADAPA-IgG1 (G237A/D265A/P329A) (antibody)
16

Now the substance Anti-CD3 GADAPASK-IgG1 (G237A/D265A/P329A/S267K) (antibody)
10
